Each recorded value in this set is attributed to PubChem BioAssay (NCI).

# Test system: MDA-MB-231 breast
# MEASUREMENT NOTES: NCI-60 one-dose screen, 48 h (100 = growth as untreated, 0 = no growth, -100 = all killed)
# CONDITION INFO: 10 µM unless noted
The panel holds about 83,000 compounds, 20% with a hit somewhere; the sample as a whole holds those more often. The source made the active and inactive calls. The calls were made as follows: active = growth percent below 10; inactive = the rest.
Quick list: growth per entry.
ASSAY READOUT: growth

INSERT INTO measurements (compound, assay_readout, result) VALUES
  ('CC1=CC(=NC(=O)CBr)C=C/C1=N\S(=O)(=O)c1ccccc1', 'growth', '67.5% (inactive)'),
  ('CN=C(N)N/N=C(\C)c1ccc2c(c1)Cc1ccccc1-2', 'growth', '-67.5% (active)'),
  ('CCN(CC)CCNC(Cc1ccccc1)c1ccc(OCc2ccccc2)cc1 (stereo unspecified)', 'growth', '50% (inactive)'),
  ('O=C1C(=O)c2cc([N+](=O)[O-])ccc2-c2ccccc21', 'growth', '-50.6% (active)'),
  ('O=[N+]([O-])c1ccc(Oc2ccccc2Cl)c([N+](=O)[O-])c1', 'growth', '75.5% (inactive)'),
  ('O=C1C=CC(=O)N1c1cc(Cl)c(Cl)cc1Cl', 'growth', '120% (inactive)'),
  ('COc1ccc(C(OCC2OC(n3ccc(NC(=O)c4ccccc4)nc3=O)C(O)C2O)(c2ccccc2)c2ccccc2)cc1 (stereo unspecified)', 'growth', '58.2% (inactive)'),
  ('CCCOS(=O)(=O)c1ccccc1', 'growth', '107% (inactive)'),
  ('CCOC(=O)/C(=C\c1ccc2ccccc2c1)P(=O)(OCC)OCC', 'growth', '16.3% (inactive)'),
  ('CCc1oc2ccccc2c1C(=O)c1cc(Br)c(O)c(Br)c1', 'growth', '58.9% (inactive)'),
  ('CCCCCCN(CCCCCC)CCCNc1nccc2ccccc12', 'growth', '1.89% (active)'),
  ('COc1ccc2nc3cc([N+](=O)[O-])ccc3c(NNc3ccccc3)c2c1', 'growth', '66.5% (inactive)'),
  ('CC(=O)OC1CC2CCC1(C)C2(C)C (stereo unspecified)', 'growth', '101% (inactive)'),
  ('O=C(OC12CC3CC(CC(C3)C1)C2)c1ccc(NCc2cc(O)ccc2O)cc1', 'growth', '-39.8% (active)'),
  ('N=C1C=C(N)C(=O)c2ccccc21', 'growth', '-12.5% (active)'),
  ('CCCCCC/C=C1\CCC(CN2CCCC2)C1=O (stereo unspecified)', 'growth', '102% (inactive)');
